All figures here come from the Human Domainome abundance scans (Beltran et al. 2025).

B1: Intersectin-2, residues 1129 to 1183; numbered along this chain, Q9NZM3 (parent)
chain: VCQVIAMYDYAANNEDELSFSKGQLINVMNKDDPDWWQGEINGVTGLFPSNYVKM

Variants of: B1
procedureText: abundance fitness (aPCA) (normalised: wild type 0, dead -1); higher = more abundant; growth selection in yeast, the domain comes from the species named
experimentalConditions: Homo sapiens
outcomeMeasure: abundance fitness
Please give only the number in your answer, with no unit.

Find the measured abundance fitness of I26L and report it.
-0.065

Return abundance fitness (reported value) for this variant: Q38H
0.04

Kindly indicate its recorded abundance fitness. Item: Q38Y
-0.012

Return reported abundance fitness. Input variant: N51E
-0.154

Output measured abundance fitness for this item: D33F
-0.24

For the variant V44K , report abundance fitness.
-0.056

Tell me its abundance fitness given V4F as the entry.
-0.004

Look up and report measured abundance fitness for this entry: K22L
-0.146

Check the records and state abundance fitness for E40A
-0.055

Respond only with abundance fitness recorded for W36E
-0.108

Note down abundance fitness recorded for E15V
-0.014

Look up abundance fitness of F20V and report it.
-0.357

Hello, please tell me recorded abundance fitness for this one: Y8K
0.074

For the variant D32H , give its reported abundance fitness.
-0.18

Supply recorded abundance fitness for N42Y here.
-0.082

State, in one line, measured abundance fitness of Y52R
-0.019

Give a short answer stating reported abundance fitness for A6D .
-0.93

Fill in reported abundance fitness for this entry: A11P
-0.069

Indicate its recorded abundance fitness; the variant in question is E40Y
-0.176

Give the measured abundance fitness for D33P
-0.287

Name the recorded abundance fitness of the item G46P in your answer.
-1.01

Give me measured abundance fitness, please, for this variant: V4W
-0.079

For the variant F48L , give its measured abundance fitness value.
0

Output abundance fitness of G39K
-0.999

Recall and state the measured abundance fitness for D35N .
-0.032

Give abundance fitness for the following variant: K31V
0.22

Given the variant W37C , write its reported abundance fitness.
-0.516

Dear colleague, please send me the reported abundance fitness for D35W when you can.
-0.145

Could you please provide reported abundance fitness for G39S ? Thanks!
-0.937

Provide measured abundance fitness value, entry: D9T
-0.084

Tell us which abundance fitness value is on record for G23H
0.023

Give abundance fitness for L47A
-0.007

Note down abundance fitness recorded for D16Q
-0.044

Give the value of abundance fitness reported for the following: S19D
-0.168

Please give the documented abundance fitness of L18N
-0.783

Quote abundance fitness reported for G46S please.
-0.764

State its abundance fitness: T45N
-0.062

Supply measured abundance fitness of I5Y in your reply.
-0.062

Answer with reported abundance fitness of I26W
-0.971

Assign abundance fitness to the following record: E40P
-0.963

Give abundance fitness for T45D
-0.1

Look up and report measured abundance fitness for this entry: I5K
-0.173

Identify measured abundance fitness associated with F20P
-0.919

Provide abundance fitness value for the following variant: L18R
-0.979

Name the recorded abundance fitness of the item N30W in your answer.
-0.16

Give abundance fitness for the following variant: D35V
-0.04
